Exercise: state measured pIC50 for each of the molecules provided.
Worth noting: pIC50 values are minus log10 of concentrations stated in mol/L.

Here CCc1cc(Nc2ncc(Cl)c(Nc3ccc(-c4ncc(OC)cn4)cc3P(C)(C)=O)n2)c(OC)cc1N1CCC(N2CCN(C)CC2)CC1 [Compound 20] was tested on UniProtKB P00533, and its pIC50 came to 7.72

Here COc1cc(Nc2ncc(Br)c(Nc3ccc(-c4cnn(C)n4)cc3P(C)(C)=O)n2)c(C)cc1N1CCOCC1 [Compound K-015] was tested on UniProtKB P00533, and its pIC50 came to 7.56

Here CCc1cc(Nc2ncc(Br)c(Nc3ccc(-c4ccn[nH]4)cc3P(C)(C)=O)n2)c(OC)cc1N1CCC(N2CCN(C)CC2)CC1 [Compound 39] was tested on UniProtKB P00533, and its pIC50 came to 7.74

* * *

target: Ba/F3 cells with EGFR Δ19del/T790M/C797S mutation gene stably overexpressed (Homo sapiens, UniProt P00533, T790M/C797S, cells depend on it, form not given); test: Ba/F3-Δ19del/T790M/C797S cell proliferation assay (CellTiter Glo, 72 hours); type: cell-based; conditions: Table 2, read-out: EGFR Δ19del/T790M/C797S IC50
Sequence (P00533 with tags, fused parts or gaps DEL746-750/T790M/C797S, form open): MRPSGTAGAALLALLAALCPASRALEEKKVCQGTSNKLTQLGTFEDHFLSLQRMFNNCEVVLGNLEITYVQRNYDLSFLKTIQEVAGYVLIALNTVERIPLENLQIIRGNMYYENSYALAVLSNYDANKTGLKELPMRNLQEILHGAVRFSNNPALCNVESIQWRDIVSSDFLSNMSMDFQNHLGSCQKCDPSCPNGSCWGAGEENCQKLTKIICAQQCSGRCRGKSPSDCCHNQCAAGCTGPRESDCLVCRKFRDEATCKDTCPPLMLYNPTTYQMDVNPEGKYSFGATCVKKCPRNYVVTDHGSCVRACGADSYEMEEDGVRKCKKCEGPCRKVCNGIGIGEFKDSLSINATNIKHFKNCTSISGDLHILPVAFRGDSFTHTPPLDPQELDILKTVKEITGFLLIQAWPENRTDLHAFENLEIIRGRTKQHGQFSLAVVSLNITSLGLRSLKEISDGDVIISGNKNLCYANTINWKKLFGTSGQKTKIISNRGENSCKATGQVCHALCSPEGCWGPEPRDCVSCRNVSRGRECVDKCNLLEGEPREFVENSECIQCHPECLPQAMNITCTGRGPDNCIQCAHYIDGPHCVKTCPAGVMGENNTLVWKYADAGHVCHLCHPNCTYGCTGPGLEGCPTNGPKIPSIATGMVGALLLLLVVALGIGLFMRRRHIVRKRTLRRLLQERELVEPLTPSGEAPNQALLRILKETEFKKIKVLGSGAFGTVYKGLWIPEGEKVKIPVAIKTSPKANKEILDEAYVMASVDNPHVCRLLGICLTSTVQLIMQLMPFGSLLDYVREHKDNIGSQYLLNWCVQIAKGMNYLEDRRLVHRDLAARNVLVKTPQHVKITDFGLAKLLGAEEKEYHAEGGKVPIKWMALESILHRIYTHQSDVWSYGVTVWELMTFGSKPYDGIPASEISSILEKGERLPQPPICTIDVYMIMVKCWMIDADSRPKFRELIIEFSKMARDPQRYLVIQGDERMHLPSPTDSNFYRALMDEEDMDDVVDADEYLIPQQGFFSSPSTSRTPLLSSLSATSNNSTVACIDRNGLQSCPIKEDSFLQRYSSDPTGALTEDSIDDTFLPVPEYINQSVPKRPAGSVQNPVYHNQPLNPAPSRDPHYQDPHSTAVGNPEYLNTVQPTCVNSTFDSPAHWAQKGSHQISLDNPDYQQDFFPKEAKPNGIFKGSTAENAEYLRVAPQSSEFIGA
Exercise: state measured GI50 for each of the molecules provided.

For reference, reported GI50 for CCc1cc(Nc2ncc(Br)c(Nc3ccc(-c4nc(Cl)cs4)cc3P(C)(C)=O)n2)c(OC)cc1N1CCC(N2CCN(C)CC2)CC1 stands at 27.7 nM

For reference, reported GI50 for CCc1cc(Nc2ncc(Br)c(Nc3ccc(-c4cncnc4)cc3P(C)(C)=O)n2)c(OC)cc1N1CCC(N2CCN(C)CC2)CC1 stands at 20.5 nM

For reference, reported GI50 for CCc1cc(Nc2ncc(Br)c(Nc3ccc(-c4ccc(C)nn4)cc3P(C)(C)=O)n2)c(OC)cc1N1CCC(N2CCN(C)CC2)CC1 stands at 13.5 nM

For reference, reported GI50 for CCn1cc(-c2cc(Nc3ncc(Br)c(Nc4ccc(-c5cc(C)n(C)n5)cc4P(C)(C)=O)n3)c(OC)cc2N2CCC(N3CCN(C)CC3)CC2)cn1 stands at 27.9 nM

* * *

test system: A431; experiment: A431 cell proliferation assay (CellTiter Glo, 72 hours); assay type: cell-based; details: Homo sapiens, A-431, 72 h, cell proliferation, A431, 72 hours, Table 2; read-out: A431 IC50
Exercise: state measured IC50 for each of the compounds provided.
Your answer is read as nM, so omit the unit and give the number.

For reference, reported IC50 for CCc1cc(Nc2ncc(Br)c(Nc3ccc(-c4cnn(C)c4)cc3P(C)(C)=O)n2)c(OC)cc1N1CCC(N(C)C)CC1 [Compound K-044] stands at 280

For reference, reported IC50 for CCc1cc(Nc2ncc(Br)c(Nc3ccc(-c4cnn(C(F)F)n4)cc3P(C)(C)=O)n2)c(OC)cc1N1CCC(N2CCN(C)CC2)CC1 [Compound K-006] stands at 1270

For reference, reported IC50 for CCc1cc(Nc2ncc(Br)c(Nc3ccc(-c4ncc(C(C)C)cn4)cc3P(C)(C)=O)n2)c(OC)cc1N1CCC(N2CCN(C)CC2)CC1 [Compound 73] stands at 1530

For reference, reported IC50 for COc1cc(Nc2ncc(Br)c(Nc3ccc(-c4cnn(C)c4)cc3P(C)(C)=O)n2)c(C)cc1N1CCOCC1 [Compound K-030] stands at 615

For reference, reported IC50 for CCc1cc(Nc2ncc(Br)c(Nc3ccc(-c4ccc(OC)s4)cc3P(C)(C)=O)n2)c(OC)cc1N1CCC(N2CCN(C)CC2)CC1 [Compound K-072] stands at 1930

For reference, reported IC50 for CCc1cc(Nc2ncc(Br)c(Nc3ccc(-c4cnn(CC)n4)cc3P(C)(C)=O)n2)c(OC)cc1N1CCC(N2CCN(C)CC2)CC1 [Compound K-062] stands at 1800

For reference, reported IC50 for CCc1cc(Nc2ncc(Br)c(Nc3ccc(-c4ccccc4C)cc3P(C)(C)=O)n2)c(OC)cc1N1CCC(N2CCOCC2)CC1 [Compound K-049] stands at 1470

For reference, reported IC50 for CCc1cc(Nc2ncc(Br)c(Nc3ccc(-c4ccc(C)cn4)cc3P(C)(C)=O)n2)c(OC)cc1N1CCC(N2CCN(C)CC2)CC1 [Compound 83] stands at 1430
